FYI, the data here is from patent US20070128190A1.

target: T1, human platelet α2β1 integrin (immobilized on microtiter plates) (human, UniProt P17301 30-1181; P05556 21-798); assay: competition with Eu-TMC-2206 on human platelet α2β1-coated plate
T1 construct: plates custom-coated with human platelet α2β1 by GTI Inc; also called immobilized α2β1 integrin; α2β1-coated plates
T1 sequence (P17301 30-1181 E534K limits assumed, chain 1 of 2): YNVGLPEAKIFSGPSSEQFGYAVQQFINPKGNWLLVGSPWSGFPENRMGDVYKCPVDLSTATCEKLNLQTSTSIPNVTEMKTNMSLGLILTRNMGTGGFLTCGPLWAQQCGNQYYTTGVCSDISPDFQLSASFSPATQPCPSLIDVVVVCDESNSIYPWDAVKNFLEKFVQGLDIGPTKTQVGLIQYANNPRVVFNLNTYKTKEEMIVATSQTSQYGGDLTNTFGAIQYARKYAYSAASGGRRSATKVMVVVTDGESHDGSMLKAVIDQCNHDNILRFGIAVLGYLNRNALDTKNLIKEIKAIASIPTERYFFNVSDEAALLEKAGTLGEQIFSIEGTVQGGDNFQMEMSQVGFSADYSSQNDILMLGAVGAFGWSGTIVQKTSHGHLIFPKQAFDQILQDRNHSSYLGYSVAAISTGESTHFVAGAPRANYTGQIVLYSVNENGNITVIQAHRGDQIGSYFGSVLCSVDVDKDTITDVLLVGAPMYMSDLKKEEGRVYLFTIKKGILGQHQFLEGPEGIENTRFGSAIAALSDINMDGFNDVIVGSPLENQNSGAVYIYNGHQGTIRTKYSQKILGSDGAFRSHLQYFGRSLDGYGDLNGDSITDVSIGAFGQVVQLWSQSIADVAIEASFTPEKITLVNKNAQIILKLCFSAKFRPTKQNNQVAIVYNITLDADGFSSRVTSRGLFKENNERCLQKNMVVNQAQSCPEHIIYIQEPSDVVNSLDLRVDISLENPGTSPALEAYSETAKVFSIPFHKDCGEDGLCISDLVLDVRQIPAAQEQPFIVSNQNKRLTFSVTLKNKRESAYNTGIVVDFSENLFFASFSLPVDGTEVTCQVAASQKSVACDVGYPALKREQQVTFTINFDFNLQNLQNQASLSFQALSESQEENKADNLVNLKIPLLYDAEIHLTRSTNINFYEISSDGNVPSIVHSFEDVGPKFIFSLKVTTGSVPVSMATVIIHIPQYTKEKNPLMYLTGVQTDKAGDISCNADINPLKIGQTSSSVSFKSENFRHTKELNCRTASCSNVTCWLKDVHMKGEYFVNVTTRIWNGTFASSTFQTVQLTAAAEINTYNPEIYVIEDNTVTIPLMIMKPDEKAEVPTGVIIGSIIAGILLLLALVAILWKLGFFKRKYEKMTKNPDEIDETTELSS
T1 sequence (P05556 21-798 limits assumed, chain 2 of 2): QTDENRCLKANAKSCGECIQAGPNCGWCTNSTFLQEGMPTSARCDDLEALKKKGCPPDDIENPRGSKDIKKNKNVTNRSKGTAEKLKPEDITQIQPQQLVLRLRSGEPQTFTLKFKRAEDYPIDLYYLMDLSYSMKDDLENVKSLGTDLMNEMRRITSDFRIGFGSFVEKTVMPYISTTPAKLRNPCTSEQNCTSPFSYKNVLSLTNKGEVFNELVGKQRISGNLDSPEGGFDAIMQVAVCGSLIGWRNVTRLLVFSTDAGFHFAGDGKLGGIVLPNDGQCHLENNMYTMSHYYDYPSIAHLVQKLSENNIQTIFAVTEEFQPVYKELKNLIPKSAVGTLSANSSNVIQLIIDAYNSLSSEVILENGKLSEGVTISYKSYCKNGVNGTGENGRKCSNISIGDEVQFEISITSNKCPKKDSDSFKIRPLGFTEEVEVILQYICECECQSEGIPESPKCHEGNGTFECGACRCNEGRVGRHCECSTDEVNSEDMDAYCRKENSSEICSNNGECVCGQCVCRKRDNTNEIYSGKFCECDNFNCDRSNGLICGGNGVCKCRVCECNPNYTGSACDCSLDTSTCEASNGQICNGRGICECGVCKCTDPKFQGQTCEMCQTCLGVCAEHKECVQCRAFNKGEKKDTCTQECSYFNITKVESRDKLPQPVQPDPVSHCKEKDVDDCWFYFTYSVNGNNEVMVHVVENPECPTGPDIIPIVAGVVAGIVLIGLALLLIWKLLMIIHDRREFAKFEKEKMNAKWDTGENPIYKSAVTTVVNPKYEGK
measure-name: Ki (nM)
Quick note: give the figure in nM, leave out the unit.

Answered cases to consult:
binder	measure-name	quantitative-result
mouse-human chimeric TMC-2206 antibody (wild type chimera) (antibody, human IgG1, V domains shown, murine VH and VL on human IgG1 Fc and human κ constant region; also called wt chimera) VH: QVQLKESGPGLVAPSQSLSITCTVSGFSLTNYGIHWVRQPPGKGLEWLGVIWARGFTNYNSALMSRLIITKDNSQSQVFLKMNSLQPDDSATYFCARANDGVYYAMDYWGQGTSVTVSS VL: QFVLTQSPAFLSASPGEKVTMTCSANSSVNYIHWYQQKSGTSPKKWIYDTSKLASGVPVRFSGSGSGTSYSLTISSMETEDAATYYCQQWTTNPLTFGAGTRVELK	Ki	0.52
TMC-2206 VH D100R variant antibody (antibody, V domains shown, variant murine VH-containing antibody; also called reverse charge mutant D100R) VH: QVQLKESGPGLVAPSQSLSITCTVSGFSLTNYGIHWVRQPPGKGLEWLGVIWARGFTNYNSALMSRLIITKDNSQSQVFLKMNSLQPDDSATYFCARANRGVYYAMDYWGQGTSVTVSS VL: QFVLTQSPAFLSASPGEKVTMTCSANSSVNYIHWYQQKSGTSPKKWIYDTSKLASGVPVRFSGSGSGTSYSLTISSMETEDAATYYCQQWTTNPLTFGAGTRVELK	Ki	0.41
humanized TMC-2206 variant hVH1.0/hVL1.0 (antibody, human IgG1, V domains shown, human IgG1/κ constant regions; also called humanized prototype; first humanized prototype) VH: QVQLQESGPGLVKPSETLSLTCTVSGFSLTNYGIHWVRQPPGKGLEWLGVIWARGFTNYNSALMSRLTISKDNSKNQVSLKLSSVTAADTAVYFCARANDGVYYAMDYWGQGTLVTVSS VL: QFVLTQSPAFLSVTPGEKVTITCSANSSVNYIHWYQQKPDQAPKKWIYDTSKLASGVPSRFSGSGSGTDYTFTISSLEAEDAATYYCQQWTTNPLTFGQGTKVEIK	Ki	0.32

// below: Ki requested for another binder
Which Ki reading was recorded for the binder TMC-2206 (antibody, mouse IgG1, V domains shown, murine IgG1/κ secreted by hybridoma BHA2.1; labelled with Eu-N1-ITC where used as tracer; also called BHA2.1) VH: QVQLKESGPGLVAPSQSLSITCTVSGFSLTNYGIHWVRQPPGKGLEWLGVIWARGFTNYNSALMSRLIITKDNSQSQVFLKMNSLQPDDSATYFCARANDGVYYAMDYWGQGTSVTVSS VL: QFVLTQSPAFLSASPGEKVTMTCSANSSVNYIHWYQQKSGTSPKKWIYDTSKLASGVPVRFSGSGSGTSYSLTISSMETEDAATYYCQQWTTNPLTFGAGTRVELK ?
0.28
